# target-of-assay: P-gp (MDR1 expressing LLC-PK1 cells) (Homo sapiens, UniProt P08183)
# Construct: host or cells: LLC-PK1
# Sequence (P08183 whole entry): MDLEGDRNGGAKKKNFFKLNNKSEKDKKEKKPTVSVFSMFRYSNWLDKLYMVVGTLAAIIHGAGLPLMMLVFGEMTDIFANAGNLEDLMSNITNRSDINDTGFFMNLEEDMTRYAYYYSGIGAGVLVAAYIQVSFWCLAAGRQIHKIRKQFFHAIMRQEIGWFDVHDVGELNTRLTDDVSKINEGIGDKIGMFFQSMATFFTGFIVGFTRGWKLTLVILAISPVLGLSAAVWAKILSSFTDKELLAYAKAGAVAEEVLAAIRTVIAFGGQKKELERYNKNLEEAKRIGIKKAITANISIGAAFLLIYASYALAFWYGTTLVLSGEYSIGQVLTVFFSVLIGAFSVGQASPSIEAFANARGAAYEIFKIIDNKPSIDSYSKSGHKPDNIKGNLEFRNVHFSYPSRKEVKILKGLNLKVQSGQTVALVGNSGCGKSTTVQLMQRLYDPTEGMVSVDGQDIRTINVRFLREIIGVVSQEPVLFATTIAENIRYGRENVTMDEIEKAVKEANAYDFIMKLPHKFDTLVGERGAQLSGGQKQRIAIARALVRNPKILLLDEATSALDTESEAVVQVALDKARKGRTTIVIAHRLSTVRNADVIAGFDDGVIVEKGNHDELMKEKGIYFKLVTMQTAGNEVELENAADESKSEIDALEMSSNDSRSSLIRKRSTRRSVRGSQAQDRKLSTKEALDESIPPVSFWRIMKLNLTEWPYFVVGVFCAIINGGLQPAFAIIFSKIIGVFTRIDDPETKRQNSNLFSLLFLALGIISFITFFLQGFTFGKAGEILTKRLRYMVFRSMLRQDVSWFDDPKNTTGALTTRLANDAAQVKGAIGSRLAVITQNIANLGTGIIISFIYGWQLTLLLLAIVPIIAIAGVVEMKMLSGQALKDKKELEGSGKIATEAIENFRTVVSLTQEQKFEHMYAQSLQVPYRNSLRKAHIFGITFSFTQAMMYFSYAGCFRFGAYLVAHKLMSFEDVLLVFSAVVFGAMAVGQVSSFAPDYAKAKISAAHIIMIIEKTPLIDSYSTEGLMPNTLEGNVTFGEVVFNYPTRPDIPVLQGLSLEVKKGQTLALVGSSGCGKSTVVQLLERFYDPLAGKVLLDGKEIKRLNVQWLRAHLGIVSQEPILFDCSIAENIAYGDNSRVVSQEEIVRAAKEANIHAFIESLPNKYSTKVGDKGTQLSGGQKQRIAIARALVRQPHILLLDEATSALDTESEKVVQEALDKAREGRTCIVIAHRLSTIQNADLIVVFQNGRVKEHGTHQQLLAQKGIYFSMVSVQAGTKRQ
# protocol-description: P-gp substrate test
# Type: in vitro ADME
# condition-label: net flux = Efflux Ratio in MDR1 expressing cells / Efflux Ratio in parent LLC-PK1 cells
# Method: • 1. Cell line: • a. MDR/LLC-PK1 (Becton Dickinson) • b. LLC-PK1 (Becton Dickinson) • 2. Reference substrates: • a Digoxin (2 μM) 1. […] After incubation for designed time at 37° C., an aliquot (50 μL) of transport buffer in the donor and receiver side were collected. […] Reference substrate and the present invention in the aliquot was quantified by LC/MS/MS. […] The efflux ratio was calculated using the following equation: […] The net flux was calculated using the following equation […]
metric-name: ER ratio (Cell: MDR1/LLC-PK1)

Examples with their reported ER ratio (Cell: MDR1/LLC-PK1) follow.
{"columns": ["smiles-structure", "target-of-assay", "value"],
 "data": [
  ["Cc1cc(C#N)cnc1C(=O)Nc1ccc(F)c([C@@]2(C)N=C(N)S[C@H](C)[C@@H]2F)c1", "P-gp (MDR1 expressing LLC-PK1 cells) (Homo sapiens, UniProt P08183)", 2.1],
  ["C[C@H]1[C@@H](C(F)F)OC(N)=N[C@]1(C)c1cc(NC(=O)c2ccc(C#N)cn2)ccc1F", "P-gp (MDR1 expressing LLC-PK1 cells) (Homo sapiens, UniProt P08183)", 2.9],
  ["CC[C@H]1SC(N)=N[C@](C)(c2cc(NC(=O)c3ccc(OCF)cn3)ccc2F)[C@H]1F", "P-gp (MDR1 expressing LLC-PK1 cells) (Homo sapiens, UniProt P08183)", 0.9],
  ["C[C@H]1SC(N)=N[C@](C)(c2cccc(NC(=O)c3cnc(OCF)cn3)c2)[C@H]1F", "P-gp (MDR1 expressing LLC-PK1 cells) (Homo sapiens, UniProt P08183)", 1.4]
]}

P. COC[C@H]1SC(N)=N[C@](C)(c2cc(NC(=O)c3cnc(OCF)cn3)ccc2F)[C@H]1F
Q. C[C@H]1SC(N)=N[C@](C)(c2cc(NC(=O)c3cnc(OCF)cn3)ccc2F)C12CC(F)(F)C2
Hello, I am sorting some records. Could you say if P or Q has the smaller ER ratio (Cell: MDR1/LLC-PK1) value? Answer format: the label of the selected item.
Q
(Q: 0.7, P: 1.5)
